Tested on: PC26
experimental_protocol: qHTS profiling for inhibitors of Plasmodium falciparum proliferation (AID 504749); also: nearly all actives have a fitted effect of over 60% in size
test_parameters: P. falciparum in erythrocytes, SYBR Green DNA, 72 h; series mostly up to 12.8 µM
Results filed as inconclusive are left out. Calls of active or inactive are those of the source. Calls follow the shape of the dose curve; as a rule, active = well fitted inhibition curve with a large enough effect; inconclusive = small, poorly fitted or top-dose-only effect; inactive = flat fitted curve, though single readings scatter.
API: response.call in Yes (active), No (inactive)

Assay outcome for C=Cc1c(C)c2cc3nc(cc4[nH]c(cc5nc(cc1[nH]2)C(C)=C5CCC(=O)O)c(CCC(=O)OC)c4C)[C@@]1(C)C3=CC=C(C(=O)OC)[C@H]1C(=O)OC (tested in a mixture with another compound) : what was it? No

Hey, what did the test say about `C[C@@H](CNC1CCCCC1)OC(=O)c1ccccc1` ? Yes

Hi, sorry to bother you, what did the test record for NC(C(=O)O)[C@@H]1CC(Cl)=NO1 (stereo partly specified) ? Yes

GET /call?item= `CO[C@@H]1C[C@H](O[C@H]2[C@@H](C)[C@H](O[C@@H]3O[C@@H](C)C[C@@H](N(C)C)[C@@H]3OC(C)=O)[C@H](C)C[C@]3(CO3)C(=O)[C@H](C)[C@H](OC(C)=O)[C@H](C)[C@H](C)OC(=O)[C@@H]2C)O[C@H](C)[C@@H]1OC(C)=O` returns the recorded outcome of this test. No

# outcome recorded in this test, key = `CN[C@H]1[C@@H](O)[C@@H](NC)[C@@H]2O[C@@]3(O)C(=O)C[C@@H](C)O[C@H]3O[C@H]2[C@H]1O` No

What outcome does the record of this test show for COC1C=CO[C@@]2(C)Oc3c(C)c(O)c4c(O)c(c(C=NN5CCN(C)CC5)c(O)c4c3C2=O)NC(=O)/C(C)=C\C=CC(C)C(O)[C@@H](C)C(O)C(C)[C@H](OC(C)=O)C1C (stereo partly specified) ? Yes
